Test system: Sphaerotheca fuliginea
Assay: In vivo preventive test on Sphaerotheca fuliginea (powdery mildew on cucurbits)
Conditions: Podosphaera fuliginea, 192 h; 500 ppm of active ingredient; preventive spray on young gherkin plants; evaluated 8 days after inoculation; read-out: efficacy
ENDPOINT: pest or weed control at 500 ppm

Answered cases to consult:
Cc1ncc(Oc2cccc(Cl)c2)c(C2=NOCC(c3ccc4c(c3)CCC4)N2)n1 (racemic): 90 to 100%
Cc1ncc(Oc2cccc(C(F)(F)F)c2)c(C2=NOCC(Cc3ccc(C4CC4)cc3C)N2)n1 (racemic): 90 to 100%
Cc1ccc(C[C@@H]2CON=C(c3nc(C)ncc3Oc3cccc(Cl)c3)N2)c(Cl)c1 (racemic): 90 to 100%
C#Cc1ccc(CC2CON=C(c3nc(C)ncc3Oc3cccc(C(F)(F)F)c3)N2)c(C)c1 (racemic): 90 to 100%
C#Cc1cccc(Oc2cnc(C)nc2C2=NOC[C@@H](Cc3ccc(C)cc3C)N2)c1 (racemic): 90 to 100%
Cc1ncc(Oc2cccc(C(F)(F)F)c2)c(C2=NOCC(Cc3ccc(Br)cc3C)N2)n1 (racemic): 90 to 100%
Cc1ncc(Oc2cccc(C(F)(F)F)c2)c(C2=NOC[C@@H](Cc3ccc(OC(F)F)cc3Cl)N2)n1 (racemic): 90 to 100%
C=Cc1cccc(Oc2cnc(C)nc2C2=NOC[C@@H](Cc3ccc(C)cc3C)N2)c1 (racemic): 80 to 89%
Cc1ncc(Oc2cccc(C(F)(F)F)c2)c(C2=NOC[C@@H](Cc3csc(C(F)(F)F)c3)N2)n1 (racemic): 80 to 89%
COc1ccc(C[C@@H]2CON=C(c3nc(C)ncc3Oc3cccc(C(F)(F)F)c3)N2)c(Cl)c1 (racemic): 90 to 100%

Checklist item: pest or weed control at 500 ppm tested on Sphaerotheca fuliginea, entry Cc1ccc(C[C@@H]2CON=C(c3nc(C)ncc3Oc3cccc(C4CC4)c3)N2)c(C)c1 (racemic) , value?
90 to 100%

Find the measured pest or weed control at 500 ppm: item Cc1ncc(Oc2cccc(C(F)(F)F)c2)c(C2=NOC[C@@H](Cc3ccc(SC(F)(F)F)cc3)N2)n1 (racemic) , target or system Sphaerotheca fuliginea.
90 to 100%

State its pest or weed control at 500 ppm on Sphaerotheca fuliginea: Cc1ccc(C[C@@H]2CON=C(c3nc(C)ncc3Oc3cccc(C4CC4)c3F)N2)c(Cl)c1 (racemic)
90 to 100%

What measured pest or weed control at 500 ppm is associated with Cc1ccc(CC2CON=C(c3nc(C)ncc3Oc3cccc([N+](=O)[O-])c3)N2)c(C)c1 (racemic) on Sphaerotheca fuliginea?
80 to 89%

====

System: Pyricularia oryzae
Assay: microbe, parasite or virus in culture
Format: cell-based
Settings: 120 h, read-out: efficacy (inhibition of fungal growth)
ENDPOINT: inhibition at 20 ppm

Cc1ccc(C[C@@H]2CON=C(c3nc(C)ncc3Oc3cccc(Br)c3)N2)c(C)c1 (racemic): 90 to 100%
Cc1cccc(Oc2cnc(C)nc2C2=NOC[C@@H](Cc3ccc(C)cc3C)N2)c1 (racemic): 90 to 100%
Cc1ncc(Oc2cccc(C(F)(F)F)c2)c(C2=NOCC(Cc3ccc(Br)cc3C)N2)n1 (racemic): 90 to 100%
Cc1ccc(CC2CON=C(c3nc(C4CC4)ncc3Oc3cccc(C(F)(F)F)c3)N2)c(C)c1 (racemic): 80 to 89%
Cc1ccc(CC2CON=C(c3nc(C)ncc3Oc3cccc([N+](=O)[O-])c3)N2)c(C)c1 (racemic): 90 to 100%
Cc1ccc(C[C@@H]2CON=C(c3nc(C)ncc3Oc3cccc(Cl)c3F)N2)c(Cl)c1 (racemic): 80 to 89%

Now consider the entry below.
I would be grateful if you could share the reported inhibition at 20 ppm for COc1cccc(Oc2cnc(C)nc2C2=NOC[C@@H](Cc3ccc(C)cc3C)N2)c1 (racemic) .
80 to 89%
